- Target or test system: T1, human tumor necrosis factor-α (rHuTNF-alpha, Biosource) (human, UniProt P01375 77-233)
- T1 construct: Bought recombinant protein coated on ELISA plates; The TNFα of the Biacore assay is not described further; also called TNFα; human TNFα
- T1 sequence (P01375 77-233 limits assumed): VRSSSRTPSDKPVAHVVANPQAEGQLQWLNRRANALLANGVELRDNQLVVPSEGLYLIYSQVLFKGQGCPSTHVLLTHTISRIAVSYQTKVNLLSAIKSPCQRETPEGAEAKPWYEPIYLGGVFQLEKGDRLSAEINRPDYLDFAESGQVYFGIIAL
- Assay notes: solid-phase ELISA, Fab lysate on coated rHuTNF-alpha

| Binder | binding result |
| --- | --- |
| SEQ ID NO 188 (Fab, V domains shown, Fab, E. coli lysate) VH: EVQLVESGGGLVQPGGSLRLSCAASGFIFSNHYMNWVRQAPGKGLEWIGEIRSKSIYGATSYAESVKGRFIISRDDNKNDLYLEMNSLKTEDTAEYYCAQNYYGSTYDYWGQGTLVTVS VL: EIVLTQSPDFQSVTPKEKVTITCRASQFVGSSIHWYQQKPDQSPKLLIKYASESMSGVPSRFSGSGSGTDFTFTISSLEAEDAATYYCQQSHSWPFTFGPGTKVDIK | binds |
| SEQ ID NO 49 (Fab, V domains shown, Fab, E. coli lysate) VH: EVQLTESGGGLVQPGGSLRLSCAASQFIFSNHWMNWVRQAPGKGLEWIGEIRSKSSYGATHYAESVKGRFIISRDGNGNSLYLEMNSLKTEDTAEYYCAQNYYGSTYDYWGQGTLVTVS VL: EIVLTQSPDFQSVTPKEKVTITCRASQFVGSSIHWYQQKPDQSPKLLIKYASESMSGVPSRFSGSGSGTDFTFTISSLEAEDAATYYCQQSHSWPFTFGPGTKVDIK | binds |
| SEQ ID NO 26 (Fab, V domains shown, Fab, E. coli lysate) VH: EVQLVESGGGLVQPGGSLRLSCRASQFTFSNHYMNWVRQAPGKGLEWIGEIRSKSIYSATHYAESVKGRFIISRDDNKNDLTLEMNSLKTEDTAEYYCARNYYGSTYDYWGQGTLVTVS VL: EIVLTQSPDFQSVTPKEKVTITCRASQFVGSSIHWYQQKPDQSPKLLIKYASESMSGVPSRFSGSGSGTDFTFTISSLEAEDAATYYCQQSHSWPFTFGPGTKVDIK | binds |
